target: GlcNAc(a1-4)Gal(b1-4)GlcNAc; assay: glycan array binding signal (z-score within array); higher = stronger binding; conditions: glycan notation: IUPAC condensed, linker removed
This excerpt belongs to a sample that is enriched for the strongest signals.
Examples of binders with documented glycan array binding signal (z-score) follow.
experimental.endpoint: glycan array binding signal (z-score)

INSERT INTO measurements (binder, experimental_endpoint, measured_number) VALUES
  ('DrGal3 (Danio rerio) (protein) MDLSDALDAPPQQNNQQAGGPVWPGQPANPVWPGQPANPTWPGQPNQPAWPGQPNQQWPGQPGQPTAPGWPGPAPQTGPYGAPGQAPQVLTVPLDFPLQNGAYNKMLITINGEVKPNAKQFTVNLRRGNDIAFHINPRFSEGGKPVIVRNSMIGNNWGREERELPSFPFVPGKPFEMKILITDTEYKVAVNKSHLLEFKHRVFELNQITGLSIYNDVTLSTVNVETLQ', 'glycan array binding signal (z-score)', -0.256),
  ('rCnSL-proB (Clitocybe nebularis) (protein) PTFSPIFALLAFLPFGTLASLLPQTQLVFRINPNLPGPNDVFVGYRGTNNVVGAIYERDGIKDTPMNNGADAELGPGSYITDDLFTAQIFASGSAGNNPGTTATVCKIYADGVQWRGAPKGYLPVLYFGNGQAAEQTRQTYLQGLDIPGTAIRFANLAKTPNQGPTAPRQMVVPSGGLQTLLKASCFPANHAALPQVLSYFNVRAALPPGWNIRTGPEFPNWTN', 'glycan array binding signal (z-score)', -0.308),
  ('Gal 10 (Homo sapiens), Q05315 (protein) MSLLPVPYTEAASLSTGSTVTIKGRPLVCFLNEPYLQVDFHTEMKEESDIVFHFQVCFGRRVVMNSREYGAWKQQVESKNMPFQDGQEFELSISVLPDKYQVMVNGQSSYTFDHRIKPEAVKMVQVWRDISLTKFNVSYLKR', 'glycan array binding signal (z-score)', -0.744);
